This section presents compounds with their documented activity, negative = inhibition values.
Molecular target: Cytochrome P450 2C9 (Homo sapiens) (UniProt P11712)
Sequence (P11712 whole entry, looked up): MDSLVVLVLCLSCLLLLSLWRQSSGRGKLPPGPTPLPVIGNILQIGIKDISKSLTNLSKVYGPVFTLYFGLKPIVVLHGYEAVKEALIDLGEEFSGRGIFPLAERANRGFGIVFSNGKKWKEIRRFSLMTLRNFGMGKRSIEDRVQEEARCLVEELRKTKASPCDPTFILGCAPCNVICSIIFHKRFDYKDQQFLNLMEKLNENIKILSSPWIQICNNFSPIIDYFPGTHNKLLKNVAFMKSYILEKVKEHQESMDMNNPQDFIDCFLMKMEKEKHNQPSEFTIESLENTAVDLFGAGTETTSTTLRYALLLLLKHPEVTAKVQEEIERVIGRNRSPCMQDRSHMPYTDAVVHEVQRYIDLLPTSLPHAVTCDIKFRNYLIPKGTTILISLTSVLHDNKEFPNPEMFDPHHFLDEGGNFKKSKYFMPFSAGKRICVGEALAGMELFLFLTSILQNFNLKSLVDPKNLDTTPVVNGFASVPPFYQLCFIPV
Assay: Cytochrome panel assay with activity outcomes; further: on the % scale 0 is the no-effect control and ±100 the full control effect
Conditions: recombinant CYP, pro-luciferin dealkylation, luminescence, p450-cyp2c9; series mostly up to 57.1 µM
Method: The P450 gene superfamily is involved in the metabolism and clearance of xenobiotics. This assay used various human CYP P450 isozymes to measure the dealkylation of various pro-luciferin substrates to luciferin. The luciferin is then measured by luminescence after the addition of a luciferase detection reagent. […] Inhibitors and some substrates limit the production of luciferin, and decrease measured luminescence. […] 8, Detection, 1 sec, ViewLux luminescent read […]
The whole screen tested about 16,000 compounds, of which about 4,000 (25%) were called active. Inconclusive results (about 26%) are left out. The list is a sample of the results.
METRIC_NAME: activity, negative = inhibition

STRUCTURE_STRING | METRIC_NAME | RESULT
O=C(O)C/C(=C\c1ccco1)C(=O)O | activity, negative = inhibition | 4.79% [at 11.4 µM] (inactive)
c1nc(NC2CCNCC2)c2cc(-c3ccoc3)ccc2n1 | activity, negative = inhibition | -8.97% [at 2.29 µM] (inactive)
COc1ccc(COC(=O)N/N=C2/C[C@@H](O)[C@@H](O)[C@@H]3[C@@H]4C(=O)N([C@@H](C)c5ccccc5)C(=O)[C@H]4CC[C@@H]23)cc1 | activity, negative = inhibition | -19.2% [at 11.4 µM] (inactive)
Cc1ccc([C@@H](O)c2cnc(C)n2Cc2ccccc2)cc1 | activity, negative = inhibition | -18.2% [at 11.4 µM] (inactive)
O[C@H](COc1ccccc1)CN1CCCCC1 | activity, negative = inhibition | 9.06% [at 11.4 µM] (inactive)
Cc1ncc(COP(=O)(O)O)c(C)c1O | activity, negative = inhibition | 5.34% [at 11.4 µM] (inactive)
Cn1c(=O)c2c(ncn2CN2CCN(Cn3cnc4c3c(=O)n(C)c(=O)n4C)CC2)n(C)c1=O | activity, negative = inhibition | 5.13% [at 11.4 µM] (inactive)
CN1CCN(c2cc(-c3ccccc3C(F)(F)F)ncn2)CC1 | activity, negative = inhibition | 4.29% [at 2.29 µM] (inactive)
O=C(O)/C=C\C=C/c1ccc2c(c1)OCO2 | activity, negative = inhibition | -5.25% [at 11.4 µM] (inactive)
C[C@@H](c1ccccc1)N1C(=O)[C@H]2[C@H]3[C@H](O)[C@H](O)C/C(=N/OCc4ccccc4)[C@H]3CC[C@@H]2C1=O | activity, negative = inhibition | -20.1% [at 11.4 µM] (inactive)
Cc1cc(=O)oc2cc(O)c(CN(C)CC(=O)O)cc12 | activity, negative = inhibition | -0.896% [at 11.4 µM] (inactive)
CN(C)CCCN1CCC2(CCC(C(C)(C)C)CC2)CC1 | activity, negative = inhibition | 13% [at 11.4 µM] (inactive)
O=C(O)CCC(=O)c1ccc2sc3ccccc3c2c1 | activity, negative = inhibition | -2.22% [at 11.4 µM] (inactive)
CC(C)=CCC/C(C)=C/CO/N=C1/[C@H]2O[C@@H]2[C@@H](O)[C@H]2[C@H]1CCn1c(=O)n(-c3ccccc3)c(=O)n12 | activity, negative = inhibition | 6.87% [at 11.4 µM] (inactive)
Fc1cccc(CSc2ncnc3c2ncn3[C@H]2CCCS2)c1 | activity, negative = inhibition | 9.41% [at 11.4 µM] (inactive)
FC(F)(F)c1ccccc1-c1nccc(NCc2cccs2)n1 | activity, negative = inhibition | -24.4% [at 2.29 µM] (inactive)
FC(F)(F)c1ccccc1-c1cc(NCc2cccs2)ncn1 | activity, negative = inhibition | -6.83% [at 2.29 µM] (inactive)
FC(F)(F)c1ccccc1-c1cc(NCc2ccccc2)ncn1 | activity, negative = inhibition | 1.84% [at 2.29 µM] (inactive)
CN1CCN(c2nc(-c3ccccc3C(F)(F)F)nc3ccccc23)CC1 | activity, negative = inhibition | 1.94% [at 2.29 µM] (inactive)
Cc1nc2ccccc2nc1-c1ccc(N=[N+]([O-])c2ccc(-c3nc4ccccc4nc3C)cc2)cc1 | activity, negative = inhibition | -2.63% [at 11.4 µM] (inactive)
C[C@]12CC[C@H]3c4ccc(O)cc4CC[C@@H]3[C@H]1C/C(=N/O)[C@H]2O | activity, negative = inhibition | 21.3% [at 11.4 µM] (inactive)
c1ccc(CNc2ncnc3ccc(-c4cccnc4)cc23)cc1 | activity, negative = inhibition | 8.31% [at 2.29 µM] (inactive)
